These entries and their values trace back to ChEMBL document CHEMBL1130778.

Below is a list of entries, each paired with its recorded Ki value.
# target-of-assay: UniProtKB Q72874
Please give a number only; it is taken to be in nM.

test-smiles | data-value
O=C1N(Cc2cccc(-c3cc[nH]n3)c2)[C@H](Cc2ccc(OCc3cccnc3)cc2)[C@H](O)[C@@H](O)[C@@H](Cc2ccc(OCc3cccnc3)cc2)N1Cc1cccc(-c2cc[nH]n2)c1 | 0.059

## Task Please report Ki for the following molecule: COc1ccc(C[C@@H]2[C@H](O)[C@@H](O)[C@@H](Cc3ccc(OC)cc3)N(Cc3cccc(-c4cc[nH]n4)c3)C(=O)N2Cc2cccc(-c3cc[nH]n3)c2)cc1
## Result 0.078

## Task Report Ki, nothing else, for this molecule: O=C1N(Cc2cccc(-c3cc[nH]n3)c2)[C@H](Cc2ccc(OCCN3CCOCC3)cc2)[C@H](O)[C@@H](O)[C@@H](Cc2ccc(OCCN3CCOCC3)cc2)N1Cc1cccc(-c2cc[nH]n2)c1
## Result 0.13

## Task Assign Ki to the following record: O=C1N(Cc2ccccc2)[C@H](Cc2ccc(OCc3ccncc3)cc2)[C@H](O)[C@@H](O)[C@@H](Cc2ccc(OCc3ccncc3)cc2)N1Cc1ccccc1
## Result 0.84

## Task Kindly indicate its recorded Ki. Item: O=C1N(Cc2cccc(-c3cc[nH]n3)c2)[C@H](Cc2ccc(O)cc2)[C@H](O)[C@@H](O)[C@@H](Cc2ccc(O)cc2)N1Cc1cccc(-c2cc[nH]n2)c1
## Result 0.016
